# Tested on: C. albicans (ATCC 24433)
# Experiment Description: Antifungal susceptibility, MIC by broth macro-dilution method
# Type: cell-based, Candida albicans
# Condition Details: RPMI 1640 medium with MOPS buffer, end points after 48 hours, NI till x = no inhibition up to x
Collected MIC against fungi, C. albicans (ATCC 24433) values appear next to each entry.

Completed entries (count: 3):
INSERT INTO assay_data (compound, readout_value) VALUES
  ('CCCCCc1c(C)sc2ncn(CC(O)(Cn3cncn3)c3ccc(F)cc3F)c(=O)c12 (centres unmarked)', '2 to 4 µg/mL'),
  ('O=c1c2c3c(sc2ncn1CC(O)(Cn1cncn1)c1ccc(F)cc1F)CCC3 (centres unmarked)', '0.25 to 0.5 µg/mL'),
  ('CC(C)(C)OC(=O)NCC(=O)OCCCCc1cc2c(=O)n(CC(O)(Cn3cncn3)c3ccc(F)cc3F)cnc2s1 (centres unmarked)', '0.5 to 1 µg/mL');

Now, please, on to the next compound.
// query What does the data say about its MIC against fungi, C. albicans (ATCC 24433)? Entry: CCCCCc1sc2ncn(CC(O)(Cn3cncn3)c3ccc(F)cc3F)c(=O)c2c1C (centres unmarked)
// result 1 to 2 µg/mL
